This collection of values is drawn from patent US12624309B2.

Assay: Acid-catalyzed hydrolysis of enol ethers in THF/1 M HCl, percent remaining by GC-FID
Assay type: physicochemical
Conditions: THF/1M HCl (80:20 v/v), room temperature, 72 h
Please note: percent remaining, 72 h exactly at 90% is class 0. Only values below 90% get class 1.

CC(=COCCc1ccccc1)c1ccc(C)cc1 [reference compound]: class 0
CCC(C)OC(=O)C(C)OC=C(C)c1ccc(C)cc1 (racemic): class 0
COC(=O)C(C)(C)OC=Cc1ccccc1 [Compound 10, methyl 2-methyl-2-(styryloxy)propanoate]: class 0
CC/C=C\CCOC=Cc1ccc(OC)cc1 [Compound 51, reference compound]: class 1
CC(=COC(C)(C)CCCC(C)C)c1ccccc1 [reference compound]: class 1
CC(=COCCc1ccccc1)c1ccccc1 [(1-phenethoxyprop-1-en-2-yl)benzene, reference compound]: class 0
COC(=O)C(C)(C)OC=C(C)c1ccc(OC)cc1: class 0
C(=Cc1ccccc1)OCCc1ccccc1 [(2-phenethoxyvinyl)benzene, reference compound]: class 1
CCC(C)OC(=O)C(C)OC=C(C)c1ccc(OC)cc1 (racemic): class 0
CCCCCC(CC)OC=Cc1ccccc1 (stereo not shown) [(2-(octan-3-yloxy)vinyl)benzene, reference compound]: class 1
COC(=O)C(C)(C)OC=C(C)c1ccc(C)cc1: class 0
CCCCCC(CC)OC(=O)C(C)OC=Cc1ccccc1 (racemic) [Compound 41, (±)-octan-3-yl 2-(styryloxy)propanoate]: class 0
CCCCCC(CC)OC(=O)C(C)OC=C(C)c1ccccc1 (racemic): class 0
COC(=O)C(C)(C)OC=C(C)c1ccccc1: class 0
